The origin of these recorded values is PubChem BioAssay.

Assay Remarks: basal RPMI8226 viability, no added stimulus, profiling panel, cell-based, calcein-AM fluorescence, 48 h, PK04 Diversity Set (AID 1166);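 further: cells grown under basal conditions without added stimulus; test concentration not given here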
Condition Notes: RPMI8226 myeloma viability, higher = more signal
Assay Metric: z-score
I only need the number, thanks.

Task item: Quick one: z-score for COc1ccc(NN2C(C(O)c3ccc(OC)c(OCc4ccccc4)c3)C=CC3C(=O)N(C4CCCCC4)C(=O)C32)cc1 (centres undefined) ?
Reply: 0.0417

Task item: Quick one: z-score for O=C1C2C=CC(C(O)c3ccc(B(O)O)cc3)N(Nc3ccccc3)C2C(=O)N1c1ccccc1 (centres undefined) ?
Reply: -2.12

Task item: Quick one: z-score for CCOC(=O)C1=C[C@@H](C(C)C)N(S(=O)(=O)c2ccc(C)cc2)[C@H]1c1ccc(C(C)C)cc1 ?
Reply: -2.18

Task item: Quick one: z-score for Cc1ccc(S[C@]2(C(=O)NC3CC3)CC(=O)N(C3CCCCC3)[C@@H]2c2ccc(CO)cc2I)cc1 ?
Reply: -1.7

Task item: Quick one: z-score for COCCOC(=O)N1C(=O)[C@@]2(c3cc(C#CCCO)ccc31)[C@H](c1ccccc1OCCO)N1[C@H](c3ccccc3)[C@H](c3ccccc3)OC(=O)[C@H]1[C@@H]2C(=O)N1CCN(c2ncccn2)CC1 ?
Reply: -0.0718

Task item: Quick one: z-score for CCOc1cc(C(O)C2C=CC3C(=O)N(c4ccccc4)C(=O)C3N2Nc2ccc([N+](=O)[O-])cc2)ccc1O (centres undefined) ?
Reply: -0.223

Task item: Quick one: z-score for C=CCOC(=O)[C@H]1[C@@H]2C(=O)O[C@@H](c3ccccc3)[C@@H](c3ccccc3)N2[C@@H](c2ccc(OCCOC(=O)[C@@H]3C[C@@H]4C(=O)NCC(=O)N4[C@@H]3c3ccc(O)cc3)cc2)[C@]12C(=O)Nc1ccccc12 ?
Reply: 0.776

Task item: Quick one: z-score for Cc1ccc(S[C@]2(C(=O)NCC(C)C)CC(=O)N(Cc3ccccc3Cl)[C@@H]2c2ccc(CO)cc2)cc1 ?
Reply: 0.845

Task item: Quick one: z-score for C=C(CCCC)/C(=C/C[C@H](OC(C)=O)c1ccc(CO)o1)c1cnc2ccccc2c1 ?
Reply: -0.889

Task item: Quick one: z-score for O=C1C=CC(=O)[C@@H]2CC(COc3ccccc3)=C3[C@@H](CCc4ccccc4)OB(O)C[C@@H]3[C@H]12 ?
Reply: -3.95

Task item: Quick one: z-score for CC(C)CNC(=O)[C@@H]1c2ccccc2C(=O)N(Cc2cc(C(F)(F)F)cc(C(F)(F)F)c2)[C@H]1c1ccc(CO)cc1 ?
Reply: -0.754

Task item: Quick one: z-score for Cc1ccc(S[C@]2(C(=O)NCC(C)C)CC(=O)N(Cc3ccccc3)[C@@H]2c2ccc(CO)cc2I)cc1 ?
Reply: -2.73

Task item: Quick one: z-score for CCOC(=O)C[C@H]1[C@H](OC(=O)Cc2ccc3c(c2)OCO3)[C@@H](NC(=O)C2CCCCC2)c2cc(OCCCO)ccc2N1C(=O)Cc1ccc(OC)cc1 ?
Reply: 0.664

Task item: Quick one: z-score for COCCOC(=O)N1C(=O)[C@@]2(c3cc(C#CCC(C(=O)OC)C(=O)OC)ccc31)[C@H](c1ccccc1OCCO)N1[C@H](c3ccccc3)[C@H](c3ccccc3)OC(=O)[C@H]1[C@@H]2C(=O)N1CCc2cc(OC)c(OC)cc2C1 ?
Reply: -0.756

Task item: Quick one: z-score for C=CCOC(=O)[C@@H]1[C@H]2C(=O)O[C@H](c3ccccc3)[C@H](c3ccccc3)N2[C@H](c2ccc(OCCOC(=O)[C@@H]3C[C@@H]4C(=O)N[C@@H](Cc5ccccc5)C(=O)N4[C@@H]3c3cccc(OCCO)c3)cc2)[C@@]12C(=O)Nc1ccc(I)cc12 ?
Reply: -1.1

Task item: Quick one: z-score for C=C[C@@H](COC(C)=O)N(Cc1ccccc1[N+](=O)[O-])S(=O)(=O)c1ccc(Br)cc1 ?
Reply: 0.0618

Task item: Quick one: z-score for C=CC[C@]1(C(=O)N2CCOCC2)N=C(c2ccc(OCCCO)cc2)O[C@H]1c1ccccc1 ?
Reply: -2.07

Task item: Quick one: z-score for CCOC(=O)C1=CCC(C(C)(C)C)N(S(=O)(=O)c2ccc(C)cc2)C1 (centres undefined) ?
Reply: -1.28

Task item: Quick one: z-score for CCOC(=O)C[C@H]1[C@H](OC(=O)c2ccccc2-c2ccccc2)[C@@H](NC(=O)Cc2ccc(OC)cc2)c2cc(OCCCO)ccc2N1C(=O)c1ccccc1 ?
Reply: 0.0629

Task item: Quick one: z-score for COC(=O)c1ccc(OC)c(/C=C\CC(OC(C)=O)c2ccccc2)c1 (centres undefined) ?
Reply: -2.39

Task item: Quick one: z-score for CC(C)C(=C=CC[C@H](O)c1ccccc1OCCO)C[C@H](O)c1ccccn1 ?
Reply: 0.0964

Task item: Quick one: z-score for CC(=O)NCCCC[C@@H]1NC(=O)[C@H]2C[C@@H](C(=O)NCCCCCC[N+](C)(C)C)[C@@H](c3cccc(OCCO)c3)N2C1=O ?
Reply: -0.418

Task item: Quick one: z-score for [N-]=[N+]=Nc1ccccc1[C@H]1OC(c2ccc(OCCCO)cc2)=N[C@@]1(CCS(=O)(=O)c1ccccc1)C(=O)O ?
Reply: 0.682

Task item: Quick one: z-score for CO[C@H]1O[C@H](CO)[C@@H](OC(=O)Nc2ccc(Oc3ccccc3)cc2)[C@H](OC(=O)Nc2ccccc2)[C@H]1OC(=O)Nc1ccccc1 ?
Reply: -3.61

Task item: Quick one: z-score for CC(=O)NCCCC[C@@H]1NC(=O)[C@@H]2C[C@H](C(=O)NCCCCCCNC(=O)CS)[C@H](c3ccc(O)cc3)N2C1=O ?
Reply: -0.66

Task item: Quick one: z-score for C=C(COC)C(=O)CC[C@H](OC(C)=O)c1cccc(OCCO)c1 ?
Reply: -1.07

Task item: Quick one: z-score for [N-]=[N+]=NCc1ccccc1C[C@@]1(C(=O)N2CCOCC2)N=C(c2ccc(OCCCO)cc2)O[C@@H]1c1ccccc1CN=[N+]=[N-] ?
Reply: -2.91

Task item: Quick one: z-score for O=C1OCC=C[C@H]2OC34C=CCN(c5ccc6ccccc6c5)C(=O)[C@H]3N(CCCO)C(=O)[C@@H]4[C@@H]12 (some centres undefined) ?
Reply: -0.691

Task item: Quick one: z-score for CCCC[C@H]1OB(O)C[C@H]2C1=C(C)C[C@H]1C(=O)N(Cc3ccccc3)C(=O)[C@H]12 ?
Reply: -0.0458

====

Assayed System: Calmodulin-1 (Homo sapiens) (UniProt P0DP23)
Assay Remarks: CALM1 binders on microarrays, EGTA buffer, profiling panel, biochemical, small-molecule microarray, Cy5-labelled CALM1 (AID 1111);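 further: labelled calmodulin applied in Tris saline Tween buffer holding calcium plus EGTA and DTT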
Condition Notes: Cy5-CALM1 binding fluorescence, higher = more signal
I'd appreciate it if you could supply composite z-score values for the items below.
I only need the number, thanks.

Task item: Quick one: composite z-score for O=C(CS)NCCCCCCNC(=O)[C@H]1C[C@H]2C(=O)NCC(=O)N2[C@H]1c1ccc(O)cc1 ?
Reply: -0.156

Task item: Quick one: composite z-score for [N-]=[N+]=NCc1ccccc1[C@@H]1OC(c2ccc(OCCCO)cc2)=N[C@]1(Cc1ccccc1)C(=O)N1CCCCC1 ?
Reply: 1.4

Task item: Quick one: composite z-score for Cc1ccc(S[C@]2(C(=O)NCCN3CCOCC3)CC(=O)N(Cc3cc(C(F)(F)F)cc(C(F)(F)F)c3)[C@@H]2c2ccc(CO)cc2I)cc1 ?
Reply: -0.452

Task item: Quick one: composite z-score for CCOC(=O)C[C@H]1[C@H](OC(=O)c2ccc(-c3ccccc3)cc2)[C@@H](NC(=O)Cc2ccc(OC)cc2)c2cc(OCCCO)ccc2N1C(=O)c1ccc2ccccc2n1 ?
Reply: 0.882

Task item: Quick one: composite z-score for COCCOC(=O)N1C(=O)[C@@]2(c3cc(C#Cc4ccc(OC)cc4)ccc31)[C@H](C(=O)N1CCN(c3ncccn3)CC1)[C@H]1C(=O)O[C@H](c3ccccc3)[C@H](c3ccccc3)N1[C@@H]2c1ccc(O)cc1 ?
Reply: 0.958

Task item: Quick one: composite z-score for Cc1ccccc1C(O)C1C=CC2C(=O)N(C)C(=O)C2N1N1CCCCC1 (configuration not stated) ?
Reply: 0.8

Task item: Quick one: composite z-score for COCC(=C=CC[C@H](O)c1ccc(OCCO)cc1)C[C@H](O)c1cc(Cl)cc(Cl)c1O ?
Reply: -0.281

====

Assayed System: NADPH oxidase 4 (Homo sapiens)
Assay Remarks: NOX4-dependent H2O2 signal modulators, primary screen, NOX inhibitor project, cell-based, HEK293-NOX4, tetracycline-induced, Amplex Red fluorescence (AID 1160)
Condition Notes: 45 min, higher = more signal, called active from +8 up or from −8 down
Assay Metric: z-score
I only need the number, thanks.

Task item: Quick one: z-score for CC(C)(C)N1CC=CC23O[C@@H]4C=CCOC(=O)[C@@H]4[C@H]2C(=O)N(CCCCCO)[C@@H]3C1=O (stereo partly specified) ?
Reply: 0.436

Task item: Quick one: z-score for COc1ccc([Si](C)(C)[C@@H]2[C@@H](CC(=O)N3CCC[C@H]3CO)O[C@]3(C(=O)N(C)c4c(Br)cc(C)cc43)[C@H]2C)cc1 ?
Reply: 1.17

Task item: Quick one: z-score for O=C1O[C@H](c2ccccc2)[C@H](c2ccccc2)N2[C@H]1[C@@H](C(=O)NC[C@H](O)c1ccccc1)[C@]1(C(=O)Nc3ccc(C#CCCO)cc31)[C@H]2c1ccc(O)cc1 ?
Reply: 0.0169

Task item: Quick one: z-score for COc1cc(C(O)C2C=CC3C(=O)N(c4ccccc4)C(=O)C3N2Nc2ccc(C#N)cc2)cc(OC)c1OC (stereo unspecified) ?
Reply: -5.26

Task item: Quick one: z-score for COC(=O)[C@@]1(Cc2ccc(OC)cc2)[C@H]2c3cc(C(=O)N4CCCC4)n(CCc4c[nH]c5cc(F)ccc45)c3C[C@H]2CN1C(=O)c1ccccc1 ?
Reply: 0.0193

Task item: Quick one: z-score for COC(=O)C[C@H]1O[C@]2(C(=O)N(Cc3ccccc3)c3ccc(NC(C)=O)cc32)[C@@H](C)[C@@H]1[Si](C)(C)c1ccc(OC)cc1 ?
Reply: 0.288
